B1: SCNN1D (parent)
chain: FLGHHSFSVRPGTEATISIREDEV

variants of: B1; assay: protein stability index of a GFP-peptide fusion (GPS, HEK-293T) (PSI 1-6); higher = more stable; settings: c terminus: a fixed tail appended;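 further: lentivirally expressed fusions sorted by FACS into six bins by GFP to DsRed ratio, PSI derived from sequencing read proportions per bin multiplied by bin number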
quantity: protein stability index

Ask: For the variant shown here, FLGHHSFSVRPGTEATISICEDEV [R20C] , give the reported protein stability index.
Reply: 2.24

Ask: Can you look up the measured protein stability index of FLGHHSFSVRKGTEATISIREDEV [P11K] for me?
Reply: 1.93

Ask: Any idea what its protein stability index is? The variant is FLGHHSFSVRPGTEATILIREDEV [S18L]
Reply: 2.2

Ask: Can you look up the measured protein stability index of FLGHHSFSVRMGTEATISIREDEV [P11M] for me?
Reply: 1.25

Ask: # query: protein stability index of entry FSGHHSFSVRPGTEATISIREDEV [L2S]
Reply: 1.76

Ask: Item under review: FLMHHSFSVRPGTEATISIREDEV [G3M] . Reported protein stability index?
Reply: 1.42

Ask: # protein stability index lookup, item FLDHHSFSVRPGTEATISIREDEV [G3D]
Reply: 2.77

Ask: Could you share which protein stability index value was measured for FLGHHSFSVRPGTEATISIREDEN [V24N] ?
Reply: 1.99

Ask: What value of protein stability index has been recorded for this entry: FLGHHSFSVRPGTEATISQREDEV [I19Q]
Reply: 1.99

Ask: Entry FLGHHSFSERPGTEATISIREDEV [V9E] : reported protein stability index = ?
Reply: 2.83

Ask: State the recorded protein stability index for this entry: FRGHHSFSVRPGTEATISIREDEV [L2R]
Reply: 4.48
